ASSAY_NOTES: Plasma pharmacokinetics after a single subcutaneous administration of LEN
Type: in vivo, rhesus macaques
CONDITION_SUMMARY: male, outbred Indian-origin, rhesus monkey, plasma, subcutaneous, 5 mg/kg, Plasma LEN (Mean), 5 mg/kg sc, week 6 post dose
QUANTITY_NAME: concentration at 6 weeks (nM)
Reply numerically in nM, unit not repeated.

Challenge: Reported concentration at 6 weeks, compound `CC(C)(C#Cc1ccc(-c2ccc(Cl)c3c(NS(C)(=O)=O)nn(CC(F)(F)F)c23)c([C@H](Cc2cc(F)cc(F)c2)NC(=O)Cn2nc(C(F)(F)F)c3c2C(F)(F)[C@@H]2C[C@H]32)n1)S(C)(=O)=O` : ____
Response given: 4.42

====

ASSAY_NOTES: Plasma pharmacokinetics after a single subcutaneous administration of LEN
Type: in vivo, rhesus macaques
CONDITION_SUMMARY: male, Indian-origin, outbred, rhesus monkey, plasma, subcutaneous, 75 mg/kg, Plasma LEN (Mean), 75 mg/kg sc, week 25 post dose
QUANTITY_NAME: concentration at 25 week
Respond with a number, then the unit of measure.

Challenge: Need concentration at 25 week of `CC(C)(C#Cc1ccc(-c2ccc(Cl)c3c(NS(C)(=O)=O)nn(CC(F)(F)F)c23)c([C@H](Cc2cc(F)cc(F)c2)NC(=O)Cn2nc(C(F)(F)F)c3c2C(F)(F)[C@@H]2C[C@H]32)n1)S(C)(=O)=O` , thanks.
Response given: 11.6 nM

====

ASSAY_NOTES: Plasma pharmacokinetics after a single subcutaneous administration of LEN
Format: in vivo, rhesus macaques
CONDITION_SUMMARY: male, outbred Indian-origin, rhesus monkey, plasma, subcutaneous, 20 mg/kg, Plasma LEN (Mean), 20 mg/kg sc, week 6 post dose
QUANTITY_NAME: concentration at 6 weeks (nM)
Please give a number only; it is taken to be in nM.

Challenge: Entry CC(C)(C#Cc1ccc(-c2ccc(Cl)c3c(NS(C)(=O)=O)nn(CC(F)(F)F)c23)c([C@H](Cc2cc(F)cc(F)c2)NC(=O)Cn2nc(C(F)(F)F)c3c2C(F)(F)[C@@H]2C[C@H]32)n1)S(C)(=O)=O [LEN, Lenacapavir] has what concentration at 6 weeks?
Response given: 26.8

====

ASSAY_NOTES: Plasma pharmacokinetics after a single subcutaneous administration of LEN
Assay type: in vivo, rhesus macaques
CONDITION_SUMMARY: male, Indian-origin (outbred), rhesus monkey, plasma, subcutaneous, 20 mg/kg, Plasma LEN (Mean), 20 mg/kg sc, week 14 post dose
Protocol: All animals were housed at Bioqual Inc. For the in vivo SHIV stock titration study, 8 untreated outbred Indian-origin male rhesus macaques aged 3–5 years were challenged intrarectally per round for a total of 5 challenge rounds using increasing virus doses ranging from 0.625 to 100 TCID50, with the 100 TCID50 round performed twice for increased resolution (Supplemental Table 2). Plasma viral load was measured to confirm the infection status. […]
QUANTITY_NAME: concentration at 14 week (nM)
Note: unit nM is implicit; provide only the numeric part.

Challenge: Look up concentration at 14 week for this compound: CC(C)(C#Cc1ccc(-c2ccc(Cl)c3c(NS(C)(=O)=O)nn(CC(F)(F)F)c23)c([C@H](Cc2cc(F)cc(F)c2)NC(=O)Cn2nc(C(F)(F)F)c3c2C(F)(F)[C@@H]2C[C@H]32)n1)S(C)(=O)=O [LEN, Lenacapavir]
Response given: 7.07

Values from paper PMC10425210
